# assayed.target: MBP-FoxP3dN (Mus musculus, UniProt Q99JB6 188-423)
# Sequence: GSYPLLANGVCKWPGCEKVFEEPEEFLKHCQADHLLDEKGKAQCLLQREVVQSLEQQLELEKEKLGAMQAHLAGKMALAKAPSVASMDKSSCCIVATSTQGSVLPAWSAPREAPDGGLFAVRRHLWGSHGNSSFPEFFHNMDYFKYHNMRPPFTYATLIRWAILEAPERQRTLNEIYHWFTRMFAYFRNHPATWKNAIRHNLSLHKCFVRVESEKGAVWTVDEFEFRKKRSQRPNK
# assay: PD-seq (MBP pull-down with sequencing); 20 mM Tris-HCl pH 7.5, 100 mM NaCl, 1.5 mM MgCl2, 0.4 uM protein, 0.1 uM dsDNA library, 30 min, room temperature, amylose pull-down; high values mean tight binding
# conditions.used: protein: recombinant; tags: His6-MBP; chain copies: 2; dsDNA, one strand shown
Over roughly 16,000 sequences, “rpm ratio (pull-down/input)” has its median near 0.5; the highest 2% begin near 5.5. For the sample, the highest values were picked, then their nearest neighbours and some sequences at random.
endpoint.label: binding signal

Worked examples, 8 sequences total:
GATGATTGTTCTCCCAGCTGATGAATTTTCGCACTCGAGTAAACAAATTTTCCTAATCTTTCTGTTCAAGCGCCATCTAC :: 0.504 RPM ratio (pull-down/input)
GATGATTGTTCTCCCAGCTGATGAATTCTCCCACTCGAGTAAACAAATTTTCCTAATCTTTCTGTTCAAGCGCCATCTAC :: 0.246 RPM ratio (pull-down/input)
GATGATTGTTCTCCCAGCTGATGAATTCCGCCACTCGAGTAAACAAATTTTCCTAATCTTTCTGTTCAAGCGCCATCTAC :: 6.15 RPM ratio (pull-down/input)
GATGATTGTTCTCCCAGCTGATGAATTGCATCCATCGAGTAAACAAATTTTCCTAATCTTTCTGTTCAAGCGCCATCTAC :: 5.42 RPM ratio (pull-down/input)
GATGATTGTTCTCCCAGCTGATGAATTCCCTCATTCGAGTAAACAAATTTTCCTAATCTTTCTGTTCAAGCGCCATCTAC :: 0.325 RPM ratio (pull-down/input)
GATGATTGTTCTCCCAGCTGATGAATTCGCCCACTCGAGTAAACAAATTTTCCTAATCTTTCTGTTCAAGCGCCATCTAC :: 0.406 RPM ratio (pull-down/input)
GATGATTGTTCTCCCAGCTGATGAATTGGGTGTTTCGAGTAAACAAATTTTCCTAATCTTTCTGTTCAAGCGCCATCTAC :: 1.38 RPM ratio (pull-down/input)
GATGATTGTTCTCCCAGCTGATGAATTTCGCCACTCGAGTAAACAAATTTTCCTAATCTTTCTGTTCAAGCGCCATCTAC :: 5.74 RPM ratio (pull-down/input)

Q. Specify measured binding signal for GATGATTGTTCTCCCAGCTGATGAATTATGGCTCTCGAGTAAACAAATTTTCCTAATCTTTCTGTTCAAGCGCCATCTAC .
A. 0.643 RPM ratio (pull-down/input)

Q. Please give the documented binding signal of GATGATTGTTCTCCCAGCTGATGAATTGAGCACGTCGAGTAAACAAATTTTCCTAATCTTTCTGTTCAAGCGCCATCTAC
A. 0.919 RPM ratio (pull-down/input)

Q. Return binding signal (reported value) for this sequence: GATGATTGTTCTCCCAGCTGATGAATTTCCGTGCTCGAGTAAACAAATTTTCCTAATCTTTCTGTTCAAGCGCCATCTAC
A. 0.332 RPM ratio (pull-down/input)

Q. Tell me measured binding signal for GATGATTGTTCTCCCAGCTGATGAATTCAGATGTTCGAGTAAACAAATTTTCCTAATCTTTCTGTTCAAGCGCCATCTAC please.
A. 1.06 RPM ratio (pull-down/input)

Q. Find the measured binding signal of GATGATTGTTCTCCCAGCTGATGAATTTTTTATATCGAGTAAACAAATTTTCCTAATCTTTCTGTTCAAGCGCCATCTAC and report it.
A. 0.31 RPM ratio (pull-down/input)

Q. Check the records and state binding signal for GATGATTGTTCTCCCAGCTGATGAATTCCCACTCTCGAGTAAACAAATTTTCCTAATCTTTCTGTTCAAGCGCCATCTAC
A. 0.323 RPM ratio (pull-down/input)

Q. Query binding signal for GATGATTGTTCTCCCAGCTGATGAATTTCAACGCTCGAGTAAACAAATTTTCCTAATCTTTCTGTTCAAGCGCCATCTAC
A. 0.363 RPM ratio (pull-down/input)
